Listed compounds paired with reported pIC50
biological target: human type II sPLA2 (Homo sapiens); test: Inhibition test of human secretory phospholipase A2, chromogenic assay, Type II enzyme; conditions: human type II enzyme 50 ng/well, absorbance change 30 min, OD 405 nm
Sequence (P14555 21-144): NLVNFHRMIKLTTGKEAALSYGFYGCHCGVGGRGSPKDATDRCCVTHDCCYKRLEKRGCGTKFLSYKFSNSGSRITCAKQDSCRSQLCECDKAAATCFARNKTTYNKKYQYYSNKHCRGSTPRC
pIC50: −log10 of the molar value.

compound | pIC50
Cc1cn2c(Cc3ccccc3)c3c(c2c(OCC(=O)O)n1)C(C(N)=O)=CCC3 | 8.05
Cc1cc(OCC(=O)O)c2c3c(c(Cc4ccc(Cl)cc4)n2n1)CCC=C3C(N)=O | 8.10
COc1cccc(Cc2c3c(c4c(OCC(=O)O)cc(-c5ccccc5)nn24)C(C(N)=O)=CCC3)c1 | 8.22
COc1cccc(Cc2c3c(c4c(OCC(=O)O)cc(C)nn24)C(C(N)=O)=CCC3)c1 | 8.00
Cc1ccc(Cc2c3c(c4c(OC(C)C(=O)O)cc(C)nn24)C(C(N)=O)=CCC3)cc1 (stereo not drawn) | 7.68
Cc1cn2c(CC3CCCCC3)c3c(c2c(OC(C)C(=O)O)n1)C(C(N)=O)=CCC3 (stereo not drawn) | 7.85
